system: SMMC-7721; experiment: Induction of apoptosis in human SMMC7721 cells assessed as necrotic cells at 1 umol/L after 72 hrs by Alexa Fluor 488 Annexin/propidium iodide staining-based flow cytometric analysis (reference value: 2.48%); assay type: functional
This section presents molecules with their documented Activity values.
Express the result in % but write the number alone.

1) Nc1ccc(F)cc1NC(=O)c1ccc(CNC(=O)/C=C/c2cccnc2)cc1 : 11.25
2) Nc1ccccc1NC(=O)c1ccc(CSC(=S)N2CCc3ccccc3C2)cc1 : 2.9
3) Nc1ccccc1NC(=O)c1ccc(CNC(=O)OCc2cccnc2)cc1 : 5.22
4) Nc1ccccc1NC(=O)c1ccc(CSC(=S)N2CCN(c3ccncc3)CC2)cc1 : 5.01

Below: the item to evaluate.
Entry under test: CCN(Cc1ccncc1)C(=S)SCc1ccc(C(=O)Nc2ccccc2N)cc1 . Its Activity was 13.18
